All values here come from the supplement of paper PMC10290057.

Test system: HCT116
Run Description: AC50 cell viability (CellTiter-Glo); higher = less potent
Recorded Conditions: 48 h
Observation Type: log10 AC50 cell viability (log10 of the value in nM)

| Compound | Data Value |
| --- | --- |
| Cn1cc(-c2cnn3c(N)c(Br)c([C@@H]4CCCNC4)nc23)cn1 | 4.12 |
| CCOc1cc2ncc(C#N)c(Nc3ccc(F)c(Cl)c3)c2cc1NC(=O)/C=C/CN(C)C [Pelitinib] | 3.77 |
| CCCCC(=O)OCC(=O)[C@]1(O)Cc2c(O)c3c(c(O)c2[C@@H](O[C@H]2C[C@H](NC(=O)C(F)(F)F)[C@H](O)[C@H](C)O2)C1)C(=O)c1c(OC)cccc1C3=O [Valrubicin] | 3.27 |
| COc1ccc(CC2c3cc(OC)c(OC)cc3CC[N+]2(C)CCC(=O)OCCCCCOC(=O)CC[N+]2(C)CCc3cc(OC)c(OC)cc3C2Cc2ccc(OC)c(OC)c2)cc1OC (stereo not drawn) [Atracurium besylate] | 4.37 |
| COc1ccc(Oc2cc(NCCC(F)(F)F)c3ncc(-c4ccc(C(=O)NC5CC5)c(C)c4)n3n2)c(F)c1F | 2.57 |
| Cn1cnc2c(F)c(Nc3ccc(Br)cc3Cl)c(C(=O)NOCCO)cc21 [Selumetinib] | 2.72 |
| COC(=O)[C@@]12OC[C@]34[C@H]([C@@H](O)[C@@H]1O)[C@@]1(C)CC(=O)C(O)=C(C)[C@@H]1C[C@H]3OC(=O)[C@H](OC(=O)/C=C(\C)C(C)C)[C@@H]24 [Bruceantin] | 0.92 |
| COc1c(C)cnc(Cn2cnc3c(Cl)nc(N)nc32)c1C [CNF-2024] | 2.17 |
| COCCNCc1ccc(-c2cc3nccc(Oc4ccc(NC(=S)NC(=O)Cc5ccc(F)cc5)cc4F)c3s2)nc1 [Glesatinib] | 3.82 |
| Cc1ncc(NC(=O)c2cccc(C(F)(F)F)c2)cc1-c1cnc(OC2CCOCC2)c(N2CCOCC2)c1 [RAF-709] | 2.72 |
| O=C(/C=C/C#Cc1cccc(N[S+](=O)([O-])c2ccccc2)c1)NO [Oxamflatin] | 3.01 |
| C[N]1C=NC=C1C(N)(C2=CC=C(Cl)C=C2)C3=CC\4=C(C=C3)N(C)C(=O)\C=C4C5=CC(=CC=C5)Cl (stereo not drawn) [Tipifarnib,Freebase] | 4.32 |
| C=CC(=O)Nc1cccc(Sc2nc(Nc3ccc(N4CCN(C)CC4)cc3)ncc2Cl)c1 [WZ-8040] | 3.87 |

###

Test system: HCT116;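 note: HCT116 colorectal carcinoma cells screened at five concentrations per compound, luminescent viability scaled between DMSO wells and empty wells on each plate, curves fitted per compound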
Run Description: AC50 cell viability (CellTiter-Glo); higher = less potent
Recorded Conditions: 48 h
Structures can show the parent of a compound that is named as a salt.
AC50 cell viability vs 10 µM: less than gives label 1; not less than gives label 0.

| Compound | Assigned Class |
| --- | --- |
| COc1cc([S+](C)(=O)[O-])ccc1Nc1nc2ccc(-c3ccc(NC(=O)[C@H](C)c4ccc(F)cc4)cc3)cn2n1 | label 1 |
| COc1cc2ncn(-c3cc(OCc4ccccc4C(F)(F)F)c(C(N)=O)s3)c2cc1OC | label 1 |
| CNC1CCC(N(Cc2cccc(-c3ccncc3)c2)C(=O)c2sc3ccccc3c2Cl)CC1 (centres undefined) | label 0 |
| CNc1nc(Nc2cnn([C@H]3CCN(C4COC4)C[C@@H]3F)c2Cl)ncc1C(F)(F)F | label 1 |
| Fc1ccc(-c2nc(-c3ccccc3F)[nH]c2-c2ccncc2)cc1 | label 0 |
| NCCCCNCCCN | label 0 |
| CO[C@H]1/C=C/O[C@@]2(C)Oc3c(C)c(O)c4c(c3C2=O)C2=NC3(CCN(CC(C)C)CC3)NC2=C(NC(=O)/C(C)=C/C=C/[C@H](C)[C@H](O)[C@@H](C)[C@@H](O)[C@@H](C)[C@H](OC(C)=O)[C@@H]1C)C4=O | label 0 |
| CCCCCNC(=O)N1CCC(CN(Cc2ccc(Cl)cc2)Cc2ccc([N+](=O)[O-])s2)C1 (centres undefined) | label 0 |
| C[N]1C=C(C2=CC=CC=C12)/C3=C(/C(=O)NC3=O)C4=C[N](C)C5=CC(=CC=C45)[N+]([O-])=O | label 1 |
| CCNCc1nc2c(N)nc3ccccc3c2n1CC(C)(C)O | label 0 |
| NC(=O)c1cnc(N[C@@H]2CCCC[C@@H]2N)nc1Nc1cccc(-n2nccn2)c1 | label 0 |
| COC(=O)C/1=C(C)/N/C(=C(\C1C2=CC(=CC=C2)[N+]([O-])=O)C(=O)OCCCN3CCC(CC3)(C4=CC=CC=C4)C5=CC=CC=C5)C (centres undefined) | label 1 |
| C/C(=N\NC(=S)N1CCC1)c1ccccn1 | label 1 |
| COC1=C(OC)C=C2C(=C1)C(=O)N(CCC[N]3C=CN=C3)\C4=C2\C(=O)C5=CC6=C(OCO6)C=C45 [Indimitecan hydrochloride (LMP-776)] | label 1 |
| OC1=CC=C(C=C1)C/2=C/C3=C(OC2)C=C(O)C=C3 | label 1 |
| COc1cc2c(Nc3ccc(Cl)c(Cl)c3F)ncnc2cc1OC[C@@H]1C[C@@H]2CN(C)C[C@@H]2C1 | label 0 |
| COc1cc2ncnc(Nc3ccc(O)c(Br)c3)c2cc1OC | label 0 |
| CC(C)(O)CNc1ncc(-c2ccnc(Nc3ccncc3)n2)c(CC2CC2)n1 | label 0 |
| COc1cccc2cc(-c3nc([C@H]4CC[C@H](C(=O)O)CC4)n4ncnc(N)c34)[nH]c12 | label 0 |
| C=CC(=O)Nc1cccc(Nc2nc(Nc3ccc(NC4CN(CCF)C4)cc3OC)ncc2C(F)(F)F)c1 | label 0 |
| CN1CCN(c2ccc(OC(F)(F)F)c(Nc3ncc4c(n3)-c3c(c(C(N)=O)nn3CCO)CC4)c2)CC1 | label 1 |
| CCn1cc(-c2ccnc3[nH]c(-c4cccc(CN(C)C)c4)cc23)c(-c2ccc(NC(=O)N(C)C)cc2)n1 | label 1 |
| CC[C@H]1CN2CCc3cc(OC)c(OC)cc3[C@@H]2C[C@@H]1C[C@H]1NCCc2cc(OC)c(OC)cc21 | label 1 |
| CCOC(=O)N1CCN(/[N+]([O-])=N/Oc2ccc([N+](=O)[O-])cc2[N+](=O)[O-])CC1 | label 0 |
| CC(C)n1cnc2c(NCCc3ccc(O)cc3)nc(-c3csc4ccccc34)nc21 | label 0 |
| C[C@H]1Oc2cc(cnc2N)-c2c(nn(C)c2C#N)CN(C)C(=O)c2ccc(F)cc21 | label 1 |
| CCc1cc(-c2n[nH]c(C)c2-c2ccc3c(c2)OCCO3)c(O)cc1O | label 1 |
| C[C@]12CC[C@H]3[C@@H](CC[C@@]45O[C@@H]4\C(=C(/C[C@]35C)C#N)O)[C@@H]1CC[C@@H]2O | label 0 |
| O=C(CC12CC3CC(CC(C3)C1)C2)Nc1cccc2nc(NCCNCCO)ccc12 | label 0 |
